// values below are reported GI50
System: CCRF-CEM
Assay: Cytotoxicity against human CCRF-CEM cells by SRB assay
Type: functional
Write the number in µM without appending the unit.

{"columns": ["STRUCTURE", "TGT", "UNIT_SPEC", "GI50"],
 "data": [
  ["CC(=O)OC[C@H]1O[C@@H](O[C@@H]2C[C@H]3C(C)(C)[C@H](OC(C)=O)CC[C@]3(C)[C@H]3CC[C@@]45C[C@H](O)C[C@H](C)[C@@H]4CC=C5[C@@]32C)[C@H](O)[C@@H](O)[C@@H]1O", "CCRF-CEM", "µM", 2.14],
  ["CC(=O)OC[C@H]1O[C@@H](O[C@@H]2C[C@H]3C(C)(C)[C@H](OC(C)=O)CC[C@]3(C)[C@H]3CC[C@@H]4[C@]5(CC[C@@]4(C)[C@@]32C)O[C@@H]([C@H](O)C(C)(C)O)C[C@@H]5C)[C@H](O)[C@@H](O)[C@@H]1O", "CCRF-CEM", "µM", 3.16],
  ["CC(=O)OC[C@H]1O[C@@H](O[C@@H]2C[C@H]3C(C)(C)[C@H](OC(C)=O)CC[C@]3(C)[C@H]3CCC4=C([C@@H](C)C[C@@H](O)[C@H](O)C(C)(C)O)CC[C@@]4(C)[C@@]32C)[C@H](O)[C@@H](O)[C@@H]1O", "CCRF-CEM", "µM", 15.8]
]}

Proceeding to the next compound to report its GI50.
Reading of GI50 for "COC(C)(C)[C@@H](O)[C@H]1C[C@H](C)[C@@]2(CC[C@]3(C)[C@@H]2CC[C@@H]2[C@@]4(C)CC[C@@H](OC(C)=O)C(C)(C)[C@@H]4C[C@@H](O[C@@H]4O[C@H](COC(C)=O)[C@@H](O)[C@H](O)[C@H]4O)[C@]23C)O1" with CCRF-CEM: 3.09
